Target: UniProtKB P04585
Assay: integrase strand transfer assay (STA)
Type: biochemical
Conditions: integrase strand-transfer assay, Example 269; read-out: STA (IC50)
Values of IC50 strictly less than 70 nM map to MET, and values of at least 70 nM map to NOT MET.

CCOC(=O)c1c(O)c2cc(C(=O)N(C)CCc3ccccc3)cnc2n(O)c1=O [Example 81]	MET
O=c1cc(N2CCc3ncccc3C2)c2cccnc2n1O [Example 123]	NOT MET
CCOC(=O)c1c(O)c2cc(-c3cccc(O)c3)cnc2n(O)c1=O [Example 59]	MET
CCOC(=O)c1ccnc2c1c(-c1ccc(-c3ccc(CN)cc3)cc1)cc(=O)n2O [Example 241]	NOT MET
